Quick reference: log10 IC50 of the listed items.
- System: CAL-120, human breast adenocarcinoma cells
- PROTOCOL DESCRIPTION: Proliferation assay CAL-120 (crystal violet, 4 days)
- Type: cell-based
- MEASUREMENT PARAMETERS: Homo sapiens, CAL-120, 96 h, CAL-120 cells, median, read-out: Prolif-CAL-120, IC50-[mol/l] (median)
OBSERVATION TYPE: log10 IC50 (log10 of the value in µM)

COMPOUND: Fc1cc2nc(CNc3nc(N4CC5CCC(C4)N5)nc4c(C5CC5)cnn34)[nH]c2cc1F
SYSTEM TESTED: CAL-120, human breast adenocarcinoma cells
log10 IC50: -2.83
//
COMPOUND: Brc1cnn2c(NCc3nc4ccccc4[nH]3)nc(OCCN3CCCC3)nc12
SYSTEM TESTED: CAL-120, human breast adenocarcinoma cells
log10 IC50: -0.72
//
COMPOUND: Fc1cccc2[nH]c(CNc3nc(N4C[C@@H]5C[C@H]4CO5)nc4c(C5CC5)cnn34)nc12
SYSTEM TESTED: CAL-120, human breast adenocarcinoma cells
log10 IC50: -1.56
//
COMPOUND: Fc1ccc2[nH]c(CNc3nc(N4CCOCC4)nc4c(-c5ccnnc5)cnn34)nc2c1F
SYSTEM TESTED: CAL-120, human breast adenocarcinoma cells
log10 IC50: -2.04
//
COMPOUND: C[C@H]1CCCCN1c1nc(NCc2nc3ccccc3[nH]2)n2ncc(Br)c2n1
SYSTEM TESTED: CAL-120, human breast adenocarcinoma cells
log10 IC50: -1.61
//
COMPOUND: Fc1cccc2[nH]c(CNc3nc(N4C[C@H]5CC[C@@H](C4)N5)nc4c(C5CC5)cnn34)nc12
SYSTEM TESTED: CAL-120, human breast adenocarcinoma cells
log10 IC50: -2.82
//
COMPOUND: C[C@@H]1CN(c2nc(NCc3nnc(-c4ccccc4)[nH]3)n3ncc(Br)c3n2)C[C@H](C)N1
SYSTEM TESTED: CAL-120, human breast adenocarcinoma cells
log10 IC50: -1.55
//
COMPOUND: Brc1cnn2c(NCc3nc4ccccc4[nH]3)nc(N3CCN4CCC3C4)nc12 (centres unmarked)
SYSTEM TESTED: CAL-120, human breast adenocarcinoma cells
log10 IC50: -2.36
//
COMPOUND: NC1(C(F)(F)F)CCN(c2nc(NCc3nc4ccccc4[nH]3)n3ncc(Br)c3n2)C1 (centres unmarked)
SYSTEM TESTED: CAL-120, human breast adenocarcinoma cells
log10 IC50: -0.99
//
COMPOUND: COc1ccccc1-c1nnc(CNc2nc(N3CCOCC3)nc3c(Br)cnn23)[nH]1
SYSTEM TESTED: CAL-120, human breast adenocarcinoma cells
log10 IC50: -1.61
//
COMPOUND: C[C@@H]1CN(c2nc(NCc3nc4c(F)cccc4[nH]3)n3ncc(C4CC4)c3n2)C[C@H](C)N1
SYSTEM TESTED: CAL-120, human breast adenocarcinoma cells
log10 IC50: -2.38
//
COMPOUND: c1ccc(-c2nnc(CNc3nc(N4CCOCC4)nc4c(C5CC5)cnn34)[nH]2)cc1
SYSTEM TESTED: CAL-120, human breast adenocarcinoma cells
log10 IC50: -1.00
//
COMPOUND: COC1CCN(c2nc(NCc3nnc(-c4ccccc4)[nH]3)n3ncc(Br)c3n2)CC1
SYSTEM TESTED: CAL-120, human breast adenocarcinoma cells
log10 IC50: -0.96
//
COMPOUND: Brc1cnn2c(NCc3nnc(-c4ccccc4)[nH]3)nc(N3CC4(COC4)C3)nc12
SYSTEM TESTED: CAL-120, human breast adenocarcinoma cells
log10 IC50: -2.00
//
COMPOUND: Brc1cnn2c(NCc3nc4ccccc4[nH]3)nc(N3CCNCC3)nc12
SYSTEM TESTED: CAL-120, human breast adenocarcinoma cells
log10 IC50: -1.90
//
COMPOUND: CN1CCN(c2nc(NCc3nc4c(F)c(Cl)ccc4[nH]3)n3ncc(Br)c3n2)CC1
SYSTEM TESTED: CAL-120, human breast adenocarcinoma cells
log10 IC50: -2.71
//
COMPOUND: c1ccc2[nH]c(CNc3nc(N4CCOCC4)nc4c(-c5ccncc5)cnn34)nc2c1
SYSTEM TESTED: CAL-120, human breast adenocarcinoma cells
log10 IC50: -2.05
//
COMPOUND: Fc1ccc2[nH]c(CNc3nc(N4C[C@@H]5CCCN[C@@H]5C4)nc4c(C5CC5)cnn34)nc2c1
SYSTEM TESTED: CAL-120, human breast adenocarcinoma cells
log10 IC50: -2.90
//
COMPOUND: C[C@H]1CN(c2nc(NCc3nc4ccccc4[nH]3)n3ncc(Br)c3n2)CCN1
SYSTEM TESTED: CAL-120, human breast adenocarcinoma cells
log10 IC50: -2.45
//
COMPOUND: OC[C@H]1CCCCN1c1nc(NCc2nc3ccccc3[nH]2)n2ncc(Br)c2n1
SYSTEM TESTED: CAL-120, human breast adenocarcinoma cells
log10 IC50: -1.59
//
COMPOUND: CN(CCO)c1nc(NCc2nc3ccccc3[nH]2)n2ncc(Br)c2n1
SYSTEM TESTED: CAL-120, human breast adenocarcinoma cells
log10 IC50: -0.79
//
COMPOUND: Fc1ccc2[nH]c(CNc3nc(N4CCOCC4)nc4c(-c5cncs5)cnn34)nc2c1F.O=C(O)C(F)(F)F
SYSTEM TESTED: CAL-120, human breast adenocarcinoma cells
log10 IC50: -2.58
//
COMPOUND: Brc1cnn2c(NCc3nc4ccccc4[nH]3)nc(N3CCCC3)nc12
SYSTEM TESTED: CAL-120, human breast adenocarcinoma cells
log10 IC50: -1.62
//
COMPOUND: CN1CC2CN(c3nc(NCc4nc5ccccc5[nH]4)n4ncc(Br)c4n3)CC2C1 (centres unmarked)
SYSTEM TESTED: CAL-120, human breast adenocarcinoma cells
log10 IC50: -1.63
//
COMPOUND: Fc1cccc2[nH]c(CNc3nc(N4CCOCC4)nc4c(CC(F)(F)F)cnn34)nc12
SYSTEM TESTED: CAL-120, human breast adenocarcinoma cells
log10 IC50: -2.10
//
COMPOUND: CN1CCN(c2nc(NCc3nc4ccccc4[nH]3)n3ncc(CC(F)(F)F)c3n2)CC1
SYSTEM TESTED: CAL-120, human breast adenocarcinoma cells
log10 IC50: -0.97
//
COMPOUND: C[C@H]1CN(C)CCN1c1nc(NCc2nc3c(F)cccc3[nH]2)n2ncc(C(F)(F)F)c2n1
SYSTEM TESTED: CAL-120, human breast adenocarcinoma cells
log10 IC50: -1.65
//
COMPOUND: OCCNc1nc(NCc2nc3ccccc3[nH]2)n2ncc(Br)c2n1
SYSTEM TESTED: CAL-120, human breast adenocarcinoma cells
log10 IC50: -0.56
//
COMPOUND: Brc1cnn2c(NCc3nc4ccccc4[nH]3)nc(N3CCC4(CCCN4)C3)nc12 (centres unmarked)
SYSTEM TESTED: CAL-120, human breast adenocarcinoma cells
log10 IC50: -1.46
//
COMPOUND: CN(CC(C)(C)O)c1nc(NCc2nc3cc(Cl)c(Cl)cc3[nH]2)n2ncc(C3CC3)c2n1
SYSTEM TESTED: CAL-120, human breast adenocarcinoma cells
log10 IC50: -2.14
//
COMPOUND: CN1C[C@H]2C[C@@H]1CN2c1nc(NCc2nc3ccccc3[nH]2)n2ncc(Br)c2n1
SYSTEM TESTED: CAL-120, human breast adenocarcinoma cells
log10 IC50: -1.68
//
COMPOUND: CN(CC(C)(C)O)c1nc(NCc2nc3cc(F)c(F)cc3[nH]2)n2ncc(C3CC3)c2n1
SYSTEM TESTED: CAL-120, human breast adenocarcinoma cells
log10 IC50: -2.54

====

- SYSTEM TESTED: CDK2/CycE (Homo sapiens)
- PROTOCOL DESCRIPTION: CDK2/CycE kinase assay (TR-FRET, 2 mM ATP)
- MEASUREMENT PARAMETERS: 2 mM ATP (high ATP); median; read-out: CDK2/CyclinE, 2 mM ATP (high ATP), IC50 (median)
OBSERVATION TYPE: IC50 (µM)

COMPOUND: CCc1cnn2c(NCc3nc4ccccc4[nH]3)nc(N3CCOCC3)nc12 [Example 431]
SYSTEM TESTED: CDK2/CycE (Homo sapiens)
OBSERVATION TYPE: IC50
RELATION OPERATOR: =
VALUE MEASURED: 1.59
//
COMPOUND: CC1(O)CCN(c2nc(NCc3nc4ccccc4[nH]3)n3ncc(Br)c3n2)C1 (stereo not shown) [Example 225]
SYSTEM TESTED: CDK2/CycE (Homo sapiens)
OBSERVATION TYPE: IC50
RELATION OPERATOR: =
VALUE MEASURED: 5.39
//
COMPOUND: COc1ccccc1-c1cnc(CNc2nc(N3CCOCC3)nc3c(Br)cnn23)[nH]1 [Example 87]
SYSTEM TESTED: CDK2/CycE (Homo sapiens)
OBSERVATION TYPE: IC50
RELATION OPERATOR: =
VALUE MEASURED: 2.55
//
COMPOUND: Fc1ccc2[nH]c(CNc3nc(N4CCOCC4)nc4c(C5CC5(F)F)cnn34)nc2c1F (stereo not shown) [Example 278]
SYSTEM TESTED: CDK2/CycE (Homo sapiens)
OBSERVATION TYPE: IC50
RELATION OPERATOR: >
VALUE MEASURED: 20
//
COMPOUND: CN1CCN(c2nc(NCc3nc4cc(OC(F)(F)F)ccc4[nH]3)n3ncc(Br)c3n2)CC1 [Example 377]
SYSTEM TESTED: CDK2/CycE (Homo sapiens)
OBSERVATION TYPE: IC50
RELATION OPERATOR: =
VALUE MEASURED: 17.1
//
COMPOUND: CC1CN(c2nc(NCc3nc4ccccc4[nH]3)n3ncc(C(C)C)c3n2)CCO1 (racemic) [Example 11]
SYSTEM TESTED: CDK2/CycE (Homo sapiens)
OBSERVATION TYPE: IC50
RELATION OPERATOR: =
VALUE MEASURED: 5.51
//
COMPOUND: CN(CC(C)(C)O)c1nc(NCc2nc3c(F)cccc3[nH]2)n2ncc(Cl)c2n1 [Example 366]
SYSTEM TESTED: CDK2/CycE (Homo sapiens)
OBSERVATION TYPE: IC50
RELATION OPERATOR: =
VALUE MEASURED: 5.57
//
COMPOUND: CC1(C)CN(c2nc(NCc3nnc(-c4ccccc4)[nH]3)n3ncc(C4CC4)c3n2)CCO1 [Example 94]
SYSTEM TESTED: CDK2/CycE (Homo sapiens)
OBSERVATION TYPE: IC50
RELATION OPERATOR: >
VALUE MEASURED: 20
//
COMPOUND: c1ccc(-c2cnn3c(NCc4nc5ccccc5[nH]4)nc(N4CCOCC4)nc23)cc1 [Example 104]
SYSTEM TESTED: CDK2/CycE (Homo sapiens)
OBSERVATION TYPE: IC50
RELATION OPERATOR: >
VALUE MEASURED: 20
//
COMPOUND: Fc1ccc(-c2cnn3c(NCc4nc5ccccc5[nH]4)nc(N4CCOCC4)nc23)cc1 [Example 106]
SYSTEM TESTED: CDK2/CycE (Homo sapiens)
OBSERVATION TYPE: IC50
RELATION OPERATOR: >
VALUE MEASURED: 20
//
COMPOUND: Cc1[nH]c(CNc2nc(N3CCOCC3)nc3c(Br)cnn23)nc1-c1ccccc1 [Example 27]
SYSTEM TESTED: CDK2/CycE (Homo sapiens)
OBSERVATION TYPE: IC50
RELATION OPERATOR: =
VALUE MEASURED: 17.1
//
COMPOUND: CN1CCN(c2nc(NCc3nc4cc(Cl)ccc4[nH]3)n3ncc(Br)c3n2)CC1 [Example 163]
SYSTEM TESTED: CDK2/CycE (Homo sapiens)
OBSERVATION TYPE: IC50
RELATION OPERATOR: =
VALUE MEASURED: 10.8
//
COMPOUND: Fc1ccc2[nH]c(CNc3nc(N4CCOCC4)nc4c(C5CC5)cnn34)nc2c1F [Example 172]
SYSTEM TESTED: CDK2/CycE (Homo sapiens)
OBSERVATION TYPE: IC50
RELATION OPERATOR: >
VALUE MEASURED: 20
//
COMPOUND: FC(F)(F)c1cnn2c(NCc3nc4ccccc4[nH]3)nc(N3CCOCC3)nc12 [Example 241]
SYSTEM TESTED: CDK2/CycE (Homo sapiens)
OBSERVATION TYPE: IC50
RELATION OPERATOR: =
VALUE MEASURED: 12
//
COMPOUND: CCc1cnn2c(NCc3nc4ccccc4[nH]3)nc(N3CCN(C)CC3)nc12 [Example 434]
SYSTEM TESTED: CDK2/CycE (Homo sapiens)
OBSERVATION TYPE: IC50
RELATION OPERATOR: =
VALUE MEASURED: 6.37
//
COMPOUND: N#Cc1cccc(-c2nnc(CNc3nc(N4CCOCC4)nc4c(Br)cnn34)[nH]2)c1 [Example 55]
SYSTEM TESTED: CDK2/CycE (Homo sapiens)
OBSERVATION TYPE: IC50
RELATION OPERATOR: =
VALUE MEASURED: 1.07
//
COMPOUND: Brc1cnn2c(NCc3nnc(-c4ccccc4)[nH]3)nc(N3CCOCC3)nc12 [Example 24]
SYSTEM TESTED: CDK2/CycE (Homo sapiens)
OBSERVATION TYPE: IC50
RELATION OPERATOR: =
VALUE MEASURED: 2.32
//
COMPOUND: CN1CCN(c2nc(NCc3nc4cc(Cl)ccc4[nH]3)n3ncc(C(F)(F)F)c3n2)CC1 [Example 298]
SYSTEM TESTED: CDK2/CycE (Homo sapiens)
OBSERVATION TYPE: IC50
RELATION OPERATOR: >
VALUE MEASURED: 19.5
//
COMPOUND: Fc1ccc2[nH]c(CNc3nc(N4C[C@@H]5C[C@H]4CO5)nc4c(C5CC5)cnn34)nc2c1 [Example 185]
SYSTEM TESTED: CDK2/CycE (Homo sapiens)
OBSERVATION TYPE: IC50
RELATION OPERATOR: >
VALUE MEASURED: 20
